Test system: SNB-75 CNS
TEST: NCI-60 one-dose screen, 48 h (100 = growth as untreated, 0 = no growth, -100 = all killed)
STUDY_CONDITIONS: 10 µM unless noted
Compounds without any hit were thinned out: in the full panel of roughly 83,000, 20% have a hit. Calls of active or inactive are those of the source. How the source made its calls: active means growth percent below 10; inactive means the rest.
Attribute: growth

# COMPOUND, growth
rows = [
    ("CC1CN(S(=O)(=O)c2oc(-c3ccc(Cl)cc3)nc2C#N)CC(C)O1 (stereo unspecified)", "91.1% (inactive)"),
    ("CCOC(=O)NC(C)C", "96.8% (inactive)"),
    ("Ic1ccc(OCCCCn2ccnc2)cc1", "64.5% (inactive)"),
    ("O=S(=O)(Nc1cc(Cl)ccc1Cl)c1ccc(-c2cnc(C3CC3)o2)cc1", "-8.98% (active)"),
    ("Cn1cc(-c2csc(-c3c[nH]c4ccc(Br)cc34)n2)c2ccnc(Cl)c21", "85.2% (inactive)"),
    ("COc1ccc(C(O)c2cc3c(N)c(C(=O)Nc4cccc(Br)c4)sc3nc2C)cc1 (stereo unspecified)", "24.4% (inactive)"),
    ("Nc1nc2ccc(-c3nc4ccc5[nH]ncc5c4c4c3CCCC4)cc2s1", "100% (inactive)"),
    ("CCOC(=O)c1cc(C)n(-c2ccc(C(=O)O)cc2)c1C", "130% (inactive)"),
    ("Cn1c(=O)cc2c3c(c(NCCCO)ccc31)C(=O)c1ccccc1-2", "39.3% (inactive)"),
    ("Cn1cc(C(=O)c2nc(-c3c[nH]c4ccccc34)no2)c2cc(F)ccc21", "27.4% (inactive)"),
    ("CN(C)c1ccc(C(=O)OCCCCCCl)cc1", "78.4% (inactive)"),
]
